Every entry's value here was drawn from the nanobody polyreactivity screen of Harvey et al. (2022).

experiment: yeast display, Sf9 membrane polyspecificity reagent, FACS + sequencing; frameworks hold sequencing errors
property_name: polyreactivity (PSR sort gate)

Please review the entries below; each comes with its answer.
entry_sequence	property_name	result
QVQLVESGGGLVQAGGSLRLSCAASGRTFYYNDMGWYRQAPGKERELVATISSGGSTYYADSVKGRFTISRDNAKNTVYLQMNSLKPEDTAVYYCAKRRRYDGWYAGPLYKYDYWGQGTQVTVSS	polyreactivity (PSR sort gate)	low polyreactivity
QVQLVESGGGLVQAGGSLRLSCAASGLIFGYYTMGWYRQAPGKEREFVAAISRGGGSTYYADSVNGRFTISRDNAKNTVYLHMNSLKPEDTAVYYCAAVVYGQVQPAYDYWGQGTQVTVLS	polyreactivity (PSR sort gate)	high polyreactivity
QVQLVESGGGLVQAGGSLRLSCAASGYIFYDYVMGWYRQAPGKEREVVAAISSGGNTNYADSVKGRFTISRDNAKNTVYLQMNSLKPEDTAVYYCAADRWGARRKQYHENGYWGQGTQVTVSS	polyreactivity (PSR sort gate)	high polyreactivity
QVQLVESGGGLVQAGGSLRLSCAASGLIFSLYAMGWSRQAPGKDRELVADITVDGDGSTYYADSVKGRFTISRDIAKNTVYLQMNSLIPEDTAVYYCAADAYFGWYYYWGQGTQVTVSS	polyreactivity (PSR sort gate)	high polyreactivity

Now examine the next entry.
Kindly indicate its recorded polyreactivity (PSR sort gate). Item: QVQLVESGGGIVQAGGSLRLSCAASGSTFVTHAMGCYRQAPGKEREFVAAISWNSTSTYFADSVKGRFTISRDHAKNTVYLQMNSLKPEDTAVYYCNATTFAFSPSLKGAYGYWGQGTQVTVSS
low polyreactivity

* * *

assay: yeast display, Sf9 membrane polyspecificity reagent, FACS + sequencing; frameworks hold sequencing errors
property_name: polyreactivity (PSR sort gate)

entry_sequence	result
QEQLQESGGGLVQAGGSLRLSCAASGSIYDDTYMARYRQAPGKERELVATIDSGSTTNYADSVKGRITISRDNAKNTVYLQMNSLKPEDSAVYYCAAADSHIDYFDYWGQGTQVTVSS	low polyreactivity
QVQLVESGGGLVQAGGSLRLSCAASGRIFNYYAMGWYRQAHGKERELVAVITYSAGRTYYADSVKGRFTISRDNAKNTVYLQMNSLKPEDTAVYNCNADGWVSVSKHYYYWGQGTQVTVSS	low polyreactivity

* * *

assay: yeast display, Sf9 membrane polyspecificity reagent, FACS + sequencing; frameworks hold sequencing errors
property_name: polyreactivity (PSR sort gate)

entry_sequence	polyreactivity (PSR sort gate)
QVQLVESGGGLVQAGGSLRLSCAASGSTFRYYSMGWYRQAPGKERELVAAITYRGGRTYYADSVKGRFTISRDNAKNTDYLQKNSLKPEDTAVYYCAAKSGRHSMDSSGQGTQVTVSS	low polyreactivity
QVQLVESGGGLVQAGGSLRLSCAASGRIFFPYYTMGWYRQAPGKERELVAVISSSGSSTYYADSVKGRFTISRDNAKNTVYLQMNSLKPEDTAVYFCNAYGGVSTRLRGDYWGQGTQVTVSS	high polyreactivity
QVQLVESGGGLVQAGGSLRLSCAASGSIFGSYAMGWYRQAPGKERELVADISRRGSSTYYADSVKGRFTISRDNAKNTVYLQMNSLKPEDTAVYYCNKVFARSLSSRYQAYDYWGQGTQVNVSS	high polyreactivity
QVQLVESGGGLVQAGGSLRLSCAASGSNFDYYAMGWYRQAPGKERELVAAISSTDGSTFYADSVKGRFTISRDNAKNTVYLQMNSLKPEDTAVYYCAVVGYYYPWPNGYDYWGQGTQVTVSS	low polyreactivity

Now examine the next entry.
Kindly indicate its recorded polyreactivity (PSR sort gate). Item: QVQLVESGGCLVQAGGSLRLSCAASGSIFVWNVMGWYRKAPGKERELVAAISWRGGTTYYADSVKGRFTISRDNAKNTVYLQMNSLKPEDTAVYYCAKQKHWSVHGGYNYWGQGTQVTVSS
high polyreactivity

* * *

assay: yeast display, Sf9 membrane polyspecificity reagent, FACS + sequencing; frameworks hold sequencing errors
property_name: polyreactivity (PSR sort gate)

Please review the entries below; each comes with its answer.
entry_sequence	result
QVQLVESGGGLVQAGGSLRLSCAASGSTFGFYAMGWYRQAPGKERELVAAISWNDGSTYYADSVKGRFTISRDNAKNTVYLQMNSLKPEDTAVYYCATEYSLWYTRDWQRYEYWGQGTQVTVSS	high polyreactivity
QVQLVESGGGLVQAGGSLRLSCAASGRTFKYNAMGWYRQAPGKERELVAVISRSTGRTYYADSVKGRFTISRDNAKNTFYLQMNSLKPEDTAVYSCNRVSRQYYYQRGFEYDYWGQGTQVTVSS	high polyreactivity
QVQLVESGGGLVQAGGSLRLSCAASGTFYYYAMGWYRQAPGKERELVAAISNGDSTTYADSVKGRFTISRDNAKNTVYLQMTSLKPEDTAVYYCAAYRYTPRTSRGYYYWGQGTQVTVSS	low polyreactivity
QVQLVESGGGLVQAGGSLRLSCAASGSTFIWYDMGWYRQAPGKERELVATIDGNDGSTYYADSVKGRFTISRDNAKNTVYLQMNSLKPEDTAVYYCAKRSTGRLQSYNYWGQGTQVTVSS	low polyreactivity

Now examine the next entry.
Kindly indicate its recorded polyreactivity (PSR sort gate). Item: QVQLVESGGGLVQAGGSLRLSCAASGRIWGYAMGLYRQAPGKARELVATITYNSGRTYYADSVKGRFTISRDNAKNTVYLQMNSLKPEDTAVYYCNKDFDGRFDYWGQGTQVNVSS
high polyreactivity

* * *

assay: yeast display, Sf9 membrane polyspecificity reagent, FACS + sequencing; frameworks hold sequencing errors

entry_sequence	polyreactivity (PSR sort gate)
QVQLVESGGGLVQAGGSLRLSCAASGFTLADNTMGWYRQAPGKERELVATISGSGSTYYADSVKGRFTISRDNAKNTVYLQMNSLKPEDTAVYYCAAVDTGTEKDLLRLGNGGYDYWGQGTQVTVSS	low polyreactivity
QVQLVESGGGLVQAGGSLRLSCAASGFIFGGNAMGWFRQAPGKERELVAAIRSGGSTYYADSVKGRFTISRDNAKNTVYLQMNSLKPEDTAVYYCAAELYDVYDLDYWGQGTQVTVSS	low polyreactivity

* * *

assay: yeast display, Sf9 membrane polyspecificity reagent, FACS + sequencing; frameworks hold sequencing errors
property_name: polyreactivity (PSR sort gate)

Please review the entries below; each comes with its answer.
entry_sequence	polyreactivity (PSR sort gate)
QVQLVESGGGLVQAGGSLRLSCAASGRISKKYAMGWYRQAPGKERELVAAIRGSGGGTYYADSVKGRFTISRDNAKNTVYLQMNSLKPEDTAVYYCNAASRHSTAPITGYDSWGQGTQVTVSS	high polyreactivity
QVQLVESGGGLVQAGGSLRLSCAASGFILKYYAMGWYRQAHGKERELVAAITVSGGSTYYADSVKGRFTISRDNAKNTFYLQMNSLKPEDTAVYYCNADYPRGGAGLLDYWGQGTQVTVSS	low polyreactivity
HVQLVESGGGLVQAGGSLRLSCAASGRIFASYPMGWYRPAPGNERELVAAISLSGGSTYYADSVKGRFTISRDNAKNTVYLQMNSLKPEDTAVYYCAAKNYRRYRDYYWGQGTQVTVSS	high polyreactivity
QVQLVESGGGLVQAGGSLRLSCAASGRTFANYAMGWYRQAPGKERELVAAISVSTVSTYYADSVKGRFTISRDNAKNTVYLQMNSLKPEDTAVYYCAATSPYKYWYRYNYWGQGTQVTVSS	high polyreactivity
QVQLVDSGGGLVQAGGSLRLSCAASGNTFGINDMGWYRKAPGKERELVAAIRISGGSTYYADSVKGRFTISRDNAKNTVYLQMNSLKPEDTAVYYCAKYGPRASLYRTGRYYWGQGTQVTVSS	high polyreactivity
QVQLVESAGGLVQAGGSLRLSCAASGRTFVGNAMGWYRQAPGTERELVADITWSGDITYYADSVKGRFTISRDNAKNTVYLQMNSLKPDDTAVYYCAADYHRRRTDYDYWGQGTQVTESS	low polyreactivity
QVQLVESGGGLVQAGGRLRLSCAASGSTIRRYAMRWYRQAPGKERELVAAIRQRGTSTYYADSVKGRFTISRDNAKNTVYLQMNSLKPEDTAVYYCAADSYSSRGNYWGQGTQVTVSS	high polyreactivity
QVQLVESGGGLVQAGGSLRLSCAASGRTFILYTMGWYRQAPGKERELVAAITTGGSTSYADSVKGRVTISRDNAKNTVYLQMNSLKPEDTAVYYCNALSRLRYKPRLYDYWGQGTQVTVSS	low polyreactivity
QVQLVESGGGLVQAGGSLRLSCAASGITFYDYAMGWYRQAPWKERELVAAISFSGSRTYYADSVKGRFTISRDNAKNTVYLQMNSLKPEDTAVYYCAASQARNYKIYDYWGQGTQVTVSS	high polyreactivity
QVQLVESGGGLVQAGGSLRLICAASGRTFYIYTMGWYREAPGKERELVAAISSSGDSTYYADSLKGRFTISRDNAKNTVYLQMNSLKPEDTAVYYCAAYPTYPDEYWGEGTQVTVSS	low polyreactivity

Kindly indicate its recorded polyreactivity (PSR sort gate). Item: QVQLVESGGGLVQAGGSLRLSCAASGSTFDYYALGWYRQAPGKETELVAAISRSGVRTYYADSVKGRFTISRDNAKNTVYLQMNSLKPEDTAVYYCAAQVIPKFDWGQGTQVTVSS
high polyreactivity

Kindly indicate its recorded polyreactivity (PSR sort gate). Item: QVQLVESGGGVVQAGGSLRLSCAASGSTFYPNAMGWYRQAPGKERELVAAISRGTRTKYADSVKGRFTISRDNAKNTVYLQMNSLKPEDTAVYYCAADTGTGLDWGQGTQVTVSS
high polyreactivity

Kindly indicate its recorded polyreactivity (PSR sort gate). Item: QVQLVESGGGLVQAGGSLRLSCAASGRIFYYYAMGWYRQAPGKEREFVAAITGRGGSTYYADSVKGRFTISRDNAKNTVYLQMNSLKPEDTAVYYCNAGQYFEYYGWYSRYGYWGQGTQVTVSS
low polyreactivity

Kindly indicate its recorded polyreactivity (PSR sort gate). Item: QDQLVESGGGLDQAGGSLRLSCAASGRIFKLYAMGWYRQAPGKERELVAAISKSGGNTYADSVKGRFTISRDNAKNTVYLQMNSLKPEETAVYYCAATVQSTSDPFDYWGQGTQVTVSS
low polyreactivity

Kindly indicate its recorded polyreactivity (PSR sort gate). Item: QVQLVESGGGLVQAGGSLRLSCAASGIILPKYSMGWYRQAPGKERELVAAITRSGGSTYYADSVKGRFTISRDNAKNTVYLQMNSLKPEDTAVYYCAARAANPTRTARYNYWGHGTQVTVSS
high polyreactivity

Kindly indicate its recorded polyreactivity (PSR sort gate). Item: QVQLVESGGGLVQAGGSLRLSCAASGSTFEFNDMGWYIQAPGKERELVASIRHSDGSTYYADSVKGRFTISRDNAKNTVYLQMNSLKPEDTAVYYCNKAFQWSGGQVSYDYWGQATQVTVSS
low polyreactivity

Kindly indicate its recorded polyreactivity (PSR sort gate). Item: QVQLVESGGGLVQAGGSLRLSCAASGNICITYAMGWYRQAPGKEREFVAAISRRRGRTYYADSVKARFTISRDKAKNTVYLQMNSLKPVDTAVYYCAADPATSVYGGLNYWGQVTQVTVSS
high polyreactivity

Kindly indicate its recorded polyreactivity (PSR sort gate). Item: QVQLVESGGGLVQAGGSLRLSCAASGFNIGDYAMGWYRQAPGKERELVAAITISGGGTYYADSVKGRFTISRDNAKNTVYLQMNSLKPEDTAVYYCAAGYYDLNLDTDFGFDYWGQGTQVTVSS
low polyreactivity

Kindly indicate its recorded polyreactivity (PSR sort gate). Item: QVQLVESGGGLVQAGGSLRLSCAASGSIFSAYAMGWYRQAPGKERELVAAISWRTGRTYYADSVKGRFTISRDNAKNTVYLQMNSLKPEDTAVYYCAVVLGVRPYDKHDYWGQGTQVTVSS
high polyreactivity

Kindly indicate its recorded polyreactivity (PSR sort gate). Item: QVQIVESGGGLVQAGGSLSLSCAASGFIFSVNDMGWYRQAPGKERELVAAISRDSGSKYYADSVKGRFTISRDNAQNSVYLEMISLKPEDTAVYDCNGEGQWVWDPYGVYDDDSYNYWGQGTQVTVSS
low polyreactivity

Kindly indicate its recorded polyreactivity (PSR sort gate). Item: QVQLVESGGGLVQAGGSLRLSCAASGSIFSYYAMGWYRQAPGKERELVAAITRGGTTYYADSVKGRFTISRDNAKNTVYLQRNSLKPEDTAVYYCAASDYYGEYEYWGQGTQVTVSS
high polyreactivity
